- assay-system: T1, IscR-C92A/C98A/C104A (clusterless) (Escherichia coli, UniProt P0AGK8 1-162, C92A;C98A;C104A)
- T1 sequence: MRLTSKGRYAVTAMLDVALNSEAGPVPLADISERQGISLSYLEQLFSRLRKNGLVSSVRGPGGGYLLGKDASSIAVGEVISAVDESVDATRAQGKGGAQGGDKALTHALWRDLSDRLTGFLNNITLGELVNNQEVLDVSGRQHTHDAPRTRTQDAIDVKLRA
- assay: fluorescence anisotropy
assay-endpoint: Kd (nM)
// return numeric value only (unit: nM, not printed)

What does the record list as Kd for hyaA site, labeled 30-mer (dsDNA) DNA 1: ATAAATCCACACAGTTTGTATTGTTTTGTG DNA 2: CACAAAACAATACAAACTGTGTGGATTTAT ?
44
